Every entry's value here was drawn from patent US20250195521A1.

Assay target: KRAS G12C (Homo sapiens (Human), UniProt P01116+P62937, G12C)
Sequence (P01116-2 other isoform, or with tags, fused parts or gaps G12C): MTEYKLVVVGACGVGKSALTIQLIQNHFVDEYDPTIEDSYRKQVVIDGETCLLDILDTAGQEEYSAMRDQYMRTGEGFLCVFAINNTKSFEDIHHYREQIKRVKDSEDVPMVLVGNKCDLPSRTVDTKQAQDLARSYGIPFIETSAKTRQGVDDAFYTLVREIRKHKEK
Sequence (P62937 whole entry): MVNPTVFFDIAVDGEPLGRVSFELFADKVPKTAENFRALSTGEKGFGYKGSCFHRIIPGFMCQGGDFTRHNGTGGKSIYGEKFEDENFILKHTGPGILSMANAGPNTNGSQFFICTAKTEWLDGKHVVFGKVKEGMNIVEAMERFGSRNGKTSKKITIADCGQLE
Method description: Ras-Raf disruption/FRET/MOA assay (BRAF RBD, Cyclophilin A)
Type: biochemical
Study conditions: read-out: KRAS G12C FRET IC50
pIC50: −log10 of the molar value.

Molecule	pIC50
CCN(C)C(=O)N(C)[C@H](C(=O)N[C@H]1Cc2nc(cs2)-c2ccc3c(c2)c(c(-c2cccnc2[C@H](C)OC)n3CC)CC(C)(C)COC(=O)[C@@H]2CCCN(N2)C1=O)C(C)C [Compound A336]	7.00 to 8.00
CCn1c(-c2cccnc2[C@H](C)OC)c2c3cc(ccc31)-c1csc(n1)C[C@H](NC(=O)[C@H](C(C)C)N(C)C(=O)N1CC[C@@H]3CN(C)C[C@@H]31)C(=O)N1CCC[C@H](N1)C(=O)OCC(C)(C)C2 [Compound A470]	5.00 to 6.00
CCn1c(-c2cccnc2[C@H](C)OC)c2c3cc(ccc31)-c1cc(O)cc(c1)C[C@H](NC(=O)[C@H](C(C)C)N(C)C(=O)[C@H]1CCN(C(C)=O)C1)C(=O)N1CCC[C@H](N1)C(=O)OCC(C)(C)C2 [Compound A5]	7.00 to 8.00
CCn1c(-c2cccnc2[C@H](C)OC)c2c3cc(ccc31)-c1csc(n1)C[C@H](NC(=O)[C@H](C(C)C)N(C)C(=O)N(C)C1COC1)C(=O)N1CCC[C@H](N1)C(=O)OCC(C)(C)C2 [Compound A334]	7.00 to 8.00

###

Assay target: KRAS WT (Homo sapiens (Human), UniProt P01116+P62937)
Sequence (P01116 other isoform, or with tags, fused parts or gaps, one chain of several): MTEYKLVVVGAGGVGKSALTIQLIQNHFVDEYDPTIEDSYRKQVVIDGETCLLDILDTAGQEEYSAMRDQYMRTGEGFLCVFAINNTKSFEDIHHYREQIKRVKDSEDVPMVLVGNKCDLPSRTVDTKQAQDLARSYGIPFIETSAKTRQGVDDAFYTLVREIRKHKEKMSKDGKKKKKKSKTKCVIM
Method description: Ras-Raf disruption/FRET/MOA assay (BRAF RBD, Cyclophilin A)
Format: biochemical
Study conditions: read-out: KRAS WT FRET data IC50

Compound	IC50
CCn1c(-c2cccnc2[C@H](C)OC)c2c3cc(ccc31)-c1csc(n1)C[C@H](NC(=O)[C@H](C(C)C)N(C)C(=O)N1CC(OC(F)(F)F)C1)C(=O)N1CCC[C@H](N1)C(=O)OCC(C)(C)C2	100 to 1000 nM
CCn1c(-c2cnccc2COC)c2c3cc(ccc31)-c1cc(O)cc(c1)C[C@H](NC(=O)[C@H](C(C)C)N(C)C(=O)C1CN(C)C1)C(=O)N1CCC[C@H](N1)C(=O)OCC(C)(C)C2	100 to 1000 nM
CCn1c(-c2cccnc2[C@H](C)OC)c2c3cc(ccc31)-c1csc(n1)C[C@H](NC(=O)[C@H](C(C)C)N(C)C(=O)N(C)[C@H]1CCCN(C)C1)C(=O)N1CCC[C@H](N1)C(=O)OCC(C)(C)C2	100 to 1000 nM
CCn1c(-c2cnccc2COC)c2c3cc(ccc31)-c1cc(O)cc(c1)C[C@H](NC(=O)[C@H](C(C)C)N(C)C(=O)[C@H]1CCN(C3CCOCC3)C1)C(=O)N1CCC[C@H](N1)C(=O)OCC(C)(C)C2	100 to 1000 nM
CCn1c(-c2cccnc2[C@H](C)OC)c2c3cc(ccc31)-c1csc(n1)C[C@H](NC(=O)[C@H](C(C)C)N1CCC3(CCN(C)C3)C1=O)C(=O)N1CCC[C@H](N1)C(=O)OCC(C)(C)C2 (some centres unmarked)	1000 to 10000 nM

###

Assay target: KRAS G12C (Homo sapiens (Human), UniProt P01116+P62937, G12C)
Method description: Ras-Raf disruption/FRET/MOA assay (BRAF RBD, Cyclophilin A)
Assay type: biochemical
Study conditions: read-out: KRAS G12C FRET IC50
Method: Compound is present in plate wells as a 10-point 3-fold dilution series starting at a final concentration of 30 μM. After incubation at 25° C. for 3 hours, a mixture of Anti-His Eu—W1024 and anti-GST allophycocyanin is then added to assay sample wells at final concentrations of 10 nM and 50 nM, respectively, and the reaction incubated for an additional 1.5 hours. […]

Compound	Assay target	IC50
CCn1c(-c2cccnc2[C@H](C)OC)c2c3cc(ccc31)-c1csc(n1)C[C@H](NC(=O)[C@H](C(C)C)N(C)C(=O)N(C)N(C)C)C(=O)N1CCC[C@H](N1)C(=O)OCC(C)(C)C2	KRAS G12C (Homo sapiens (Human), UniProt P01116+P62937, G12C)	10 to 100 nM
CCn1c(-c2cccnc2[C@H](C)OC)c2c3cc(ccc31)-c1cc(O)cc(c1)C[C@H](NC(=O)[C@@H]1[C@@H](C)CCCN1C(C)=O)C(=O)N1CCC[C@H](N1)C(=O)OCC(C)(C)C2	KRAS G12C (Homo sapiens (Human), UniProt P01116+P62937, G12C)	100 to 1000 nM
CCn1c(-c2cccnc2[C@H](C)OC)c2c3cc(ccc31)-c1csc(n1)C[C@H](NC(=O)[C@H](C(C)C)N(C)C(=O)N1CCS(=O)(=O)CC1)C(=O)N1CCC[C@H](N1)C(=O)OCC(C)(C)C2	KRAS G12C (Homo sapiens (Human), UniProt P01116+P62937, G12C)	100 to 1000 nM
CCn1c(-c2cccnc2[C@H](C)OC)c2c3cc(ccc31)-c1cc(O)cc(c1)C[C@H](NC(=O)[C@H](C(C)C)N(C)C(=O)C1CCC3(CCOC3)O1)C(=O)N1CCC[C@H](N1)C(=O)OCC(C)(C)C2 (some centres unmarked)	KRAS G12C (Homo sapiens (Human), UniProt P01116+P62937, G12C)	10 to 100 nM
CCn1c(-c2cccnc2[C@H](C)OC)c2c3cc(ccc31)-c1csc(n1)C[C@H](NC(=O)[C@H](C(C)C)N(C)C(=O)N1CC([C@@H](CO)OC)C1)C(=O)N1CCC[C@H](N1)C(=O)OCC(C)(C)C2	KRAS G12C (Homo sapiens (Human), UniProt P01116+P62937, G12C)	10 to 100 nM

###

Assay target: K-Ras G12C(GMP-PNP) binding to BRAF RBD (Homo sapiens (Human), UniProt P01116+P62937, G12C)
Sequence (P01116 other isoform, or with tags, fused parts or gaps G12C): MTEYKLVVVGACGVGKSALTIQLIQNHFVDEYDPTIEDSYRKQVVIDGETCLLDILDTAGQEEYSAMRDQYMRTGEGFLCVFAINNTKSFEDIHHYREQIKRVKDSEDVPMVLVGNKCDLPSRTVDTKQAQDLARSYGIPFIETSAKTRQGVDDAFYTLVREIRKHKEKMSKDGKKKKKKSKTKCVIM
Sequence (P62937 whole entry): as the sequence (P62937 whole entry) above
Method description: Disruption of BRAF RBD interaction with K-Ras (FRET / MOA assay), K-Ras G12C
Assay type: biochemical
Study conditions: read-out: KRAS G12C FRET IC50
Below is a list of entries, each paired with its recorded IC50 value.

Smiles code	IC50
CCn1c(-c2cncnc2)c2c3cc(ccc31)-c1csc(n1)C[C@H](NC(=O)[C@H](C(C)C)N(C)C(=O)[C@H]1CCN(S(=O)(=O)CC)C1)C(=O)N1CCC[C@H](N1)C(=O)OCC(C)(C)C2	1000 to 10000 nM
CCn1c(-c2cccnc2[C@H](C)OC)c2c3cc(ccc31)-c1cc(O)cc(c1)C[C@H](NC(=O)[C@@H]1[C@H]3C[C@H]3CN1C(C)=O)C(=O)N1CCC[C@H](N1)C(=O)OCC(C)(C)C2	10 to 100 nM
CCn1c(-c2cccnc2[C@H](C)OC)c2c3cc(ccc31)-c1csc(n1)C[C@H](NC(=O)[C@H](C(C)C)N(C)C(=O)N1CCCC13CN(C)C3)C(=O)N1CCC[C@H](N1)C(=O)OCC(C)(C)C2	10 to 100 nM
CCn1c(-c2cccnc2[C@H](C)OC)c2c3cc(ccc31)-c1cc(O)cc(c1)C[C@H](NC(=O)[C@@H]1[C@@H](C)CCCN1C(C)=O)C(=O)N1CCC[C@H](N1)C(=O)OCC(C)(C)C2	< 10 nM
CCn1c(-c2cccnc2[C@H](C)OC)c2c3cc(ccc31)-c1cc(O)cc(c1)C[C@H](NC(=O)[C@H](C(C)C)N(C)C(=O)[C@@H]1[C@@H]3CNC[C@@H]31)C(=O)N1CCC[C@H](N1)C(=O)OCC(C)(C)C2	10 to 100 nM
CCn1c(-c2cccnc2[C@H](C)OC)c2c3cc(ccc31)-c1csc(n1)C[C@H](NC(=O)[C@H](C(C)C)N(C)C(=O)N(C)[C@H]1CCN(C)C1)C(=O)N1CCC[C@H](N1)C(=O)OCC(C)(C)C2	100 to 1000 nM
C=CC(=O)N(C)CCN1CCN(C(=O)N(C)[C@H](C(=O)N[C@H]2C[n+]3cccc(c3)-c3ccc4c(c3)c(c(-c3cccnc3[C@H](C)OC)n4CC)CC(C)(C)COC(=O)[C@@H]3CCCN(N3)C2=O)C(C)C)CC1	100 to 1000 nM
CCn1c(-c2cccnc2[C@H](C)OC)c2c3cc(ccc31)-c1cc(O)cc(c1)C[C@H](NC(=O)[C@H](C(C)C)N(C)C(=O)[C@H]1CCN(C(=O)OC(C)C)C1)C(=O)N1CCC[C@H](N1)C(=O)OCC(C)(C)C2	100 to 1000 nM
CCn1c(-c2cccnc2[C@H](C)OC)c2c3cc(ccc31)-c1csc(n1)C[C@H](NC(=O)[C@H]1[C@H](C)[C@@H]1C)C(=O)N1CCC[C@H](N1)C(=O)OCC(C)(C)C2	100 to 1000 nM
